MEASUREMENT NOTES: Steady-state pharmacokinetics of atomoxetine alone and coadministered with paroxetine in CYP2D6 extensive metabolizers
Format: in vivo
RUN PARAMETERS: both sexes, human, plasma, oral, atomoxetine with paroxetine (Period 2), steady state, mean (range), n = 14
ENDPOINT LABEL: half-life (h)
# output: bare number, implied unit h

Note to self: half-life recorded for CNCC[C@@H](Oc1ccccc1C)c1ccccc1 [Atomoxetine] was 11

###

MEASUREMENT NOTES: Steady-state pharmacokinetics of atomoxetine alone and coadministered with paroxetine in CYP2D6 extensive metabolizers
Type: in vivo
RUN PARAMETERS: both sexes, human, plasma, oral, after concomitant paroxetine administration
ENDPOINT LABEL: half-life (min)
# output: bare number, implied unit min

Note to self: half-life recorded for CNCC[C@@H](Oc1ccccc1C)c1ccccc1 was 601

###

MEASUREMENT NOTES: Steady-state pharmacokinetics of atomoxetine alone and coadministered with paroxetine in CYP2D6 extensive metabolizers
Assay type: in vivo
RUN PARAMETERS: both sexes, human, plasma, oral; read-out: Vz/F
ENDPOINT LABEL: Vd/F (L/kg)
# output: bare number, implied unit L/kg

Note to self: Vd/F recorded for CNCC[C@@H](Oc1ccccc1C)c1ccccc1 was 0.803

###

MEASUREMENT NOTES: Steady-state pharmacokinetics of atomoxetine alone and coadministered with paroxetine in CYP2D6 extensive metabolizers
Type: in vivo
RUN PARAMETERS: both sexes, human, plasma, oral, 20 mg; read-out: AUC0-τ
ENDPOINT LABEL: AUC

Note to self: AUC recorded for CNCC[C@@H](Oc1ccccc1C)c1ccccc1 was 846 ng·h/mL

###

MEASUREMENT NOTES: Steady-state pharmacokinetics of atomoxetine alone and coadministered with paroxetine in CYP2D6 extensive metabolizers
Assay type: in vivo
RUN PARAMETERS: both sexes, human, plasma, oral, atomoxetine with paroxetine (Period 2), steady state, median (range), n = 14; read-out: Tmax
ENDPOINT LABEL: Tmax

Note to self: Tmax recorded for CNCC[C@@H](Oc1ccccc1C)c1ccccc1 [Atomoxetine] was 1.5 h

###

MEASUREMENT NOTES: Steady-state pharmacokinetics of atomoxetine alone and coadministered with paroxetine in CYP2D6 extensive metabolizers
Assay type: in vivo
RUN PARAMETERS: both sexes, human, plasma, oral, 20 mg, atomoxetine alone (Period 1), steady state, median (range), n = 21; read-out: Tmax
ENDPOINT LABEL: Tmax (h)
# output: bare number, implied unit h

Note to self: Tmax recorded for CNCC[C@@H](Oc1ccccc1C)c1ccccc1 was 1

Every entry's value here was drawn from patent US20040176466A1.
